B1: tRNA (parent)
chain: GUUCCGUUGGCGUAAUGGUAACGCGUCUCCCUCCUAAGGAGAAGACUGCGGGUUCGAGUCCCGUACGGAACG

# Variants of: B1
# protocolDescription: yeast fitness relative to wild type (ratio to wild type); higher = fitter; tRNA-Arg(CCU), competitive growth, 37 C, YPD
Variants at the floor of the assay were thinned out.
attributeMeasured: yeast fitness
Provide a numeric answer; units are not to be included.

Per the record, U19A G39A G44A has yeast fitness of 0.873

yeast fitness in this record for G18A U26C : 0.648

Record C4U C34U . Reported yeast fitness: 0.737

GET /value?item= U19G U28G &field=yeast fitness returns 0.551

Sure, the documented yeast fitness for U32G U47A U64A A65C G67A is 0.6

Recorded result, C5U U32C G39A C60U C61G , yeast fitness: 0.527

Item: A21G C49U U59G | yeast fitness: 0.619

The variant listed as C4U U53G shows yeast fitness equal to 0.558

Summary for this variant, A20U A40G : yeast fitness is 0.903

Recorded yeast fitness (variant U8C G12A A65G ): 0.615

According to the records, this variant C11U G58C C61U displays yeast fitness of 0.65

Entry U3C A15G G68C — recorded yeast fitness = 0.618

Given item A15U A21C U53C G56C A65G , the value recorded as its yeast fitness is 0.77

Looking up U3C A14C , I found its yeast fitness recorded as 0.703

// sample C4A C11U C34G C62A , its yeast fitness was 0.748

Reported yeast fitness ( U8C G18A G23C C31G G38C G41A ) = 0.635

For this variant ( C4U C29U G48A ), measured yeast fitness is 0.662

Note to self: yeast fitness recorded for G10C A42C was 0.71

Documented yeast fitness of U7A G67U : 0.771

// field: yeast fitness; key: U3G C24A C34A C46G ; value = 0.581

Short answer for A36U G38A A65C : yeast fitness was 0.518

// recorded yeast fitness for C30A C46G G52A G56A : 0.608

yeast fitness for U13C U47C is 0.905
